FYI, the data here is from the supplement of paper PMC11451515.

test system: SEM cells; assay: cell viability relative to DMSO control; higher = less cytotoxic; settings: HPLM + 10% dialyzed FBS; 48 h; 0.00234 µM
Can you tell me cell viability for the items I'm about to list?

The reported value for O=C(C1CC1)N1CC[C@@H](Cn2c(-c3ccc(-c4ccc5occc5c4)cc3)nc3cnccc32)C1 in terms of cell viability is 91.1%

The value of cell viability measured for the compound O=C(NCCCNc1nc(Nc2cccc(NC(=O)N3CCCC3)c2)ncc1I)c1cccs1 turned out to be 91.1%

Consider CN[C@H]1[C@H](O[C@@H]2[C@H](O[C@@H]3[C@@H](O)[C@@H](O)[C@@H](NC(=N)N)[C@@H](O)[C@H]3NC(=N)N)O[C@H](C)[C@@]2(O)C=O)O[C@@H](CO)[C@@H](O)[C@H]1O . Its measured cell viability is 89.9%

Briefly, cell viability measured for CC1(C)Cc2c(sc(NC(=S)NC(=O)c3ccccc3)c2C(=O)O)CO1 : 89.5%
